ASSAYED_TARGET: Human PD-L1/PD-1 (Homo sapiens, UniProt Q9NZQ7)
Construct: TVMV protease cleavage site (C); made in house; host or cells: HEK293T cells
Sequence (Q9NZQ7 with tags, fused parts or gaps): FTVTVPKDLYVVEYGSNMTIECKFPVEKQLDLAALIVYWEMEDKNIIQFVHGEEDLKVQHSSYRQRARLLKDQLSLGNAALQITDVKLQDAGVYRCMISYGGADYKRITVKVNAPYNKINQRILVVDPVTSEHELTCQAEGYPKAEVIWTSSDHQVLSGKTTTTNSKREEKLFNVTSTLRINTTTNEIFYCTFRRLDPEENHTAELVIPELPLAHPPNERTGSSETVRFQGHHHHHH
ASSAY_COMMENT: HTRF Human PD-L1/PD-1 binding assay (PD-1-Ig/PD-L1-His)
CONDITION: PD-L1-His 10 nM, PD-1-Ig 20 nM; class symbol; read-out: HTRF Human PD-L1/PD-1 Binding Assay IC50 Range
pIC50: −log10 of the molar value. Where a SMILES comes first, the peptide text is derived from it. Bridges are numbered along the chain shown (N, C = ends). [ ]: non-standard residue; d: D form. Phe(4-F) = N[C@@H](Cc1ccc(F)cc1)C(=O)O; NMeF = CN[C@@H](Cc1ccccc1)C(=O)O; NMeNle = CCCC[C@H](NC)C(=O)O; NMeV = CN[C@H](C(=O)O)C(C)C; dPip = O=C(O)[C@H]1CCCCN1; Sar = CNCC(=O)O
As shown below, each of these compounds has a reported pIC50 value.
REPORTED_METRIC: pIC50

COMPOUND | OBSERVED_VALUE
CCCC[C@H]1C(=O)N2CCC[C@@H]2C(=O)N[C@@H](CC(=O)O)C(=O)N[C@@H](C(C)C)C(=O)N(C)[C@@H](C(C)C)C(=O)N[C@@H](Cc2ccc(O)cc2)C(=O)N2CCC[C@@H]2C(=O)N[C@@H](Cc2c[nH]c3ccccc23)C(=O)N[C@@H](Cc2ccc(O)cc2)C(=O)N[C@@H](CC(C)C)C(=O)N[C@H](C(=O)NCC(N)=O)CSCC(=O)N[C@@H](Cc2ccc(F)cc2)C(=O)N(C)[C@@H](Cc2ccccc2)C(=O)N1C [Example 9241] ({CH2CO}-[Phe(4-F)][NMeF][NMeNle][dP]DV[NMeV]Y[dP]WYLCG-NH2; thioether N-13) | 5.00 to 6.00
CCCC[C@H]1C(=O)N2CCCC[C@@H]2C(=O)N[C@@H](CC(=O)O)C(=O)N[C@@H](C)C(=O)N(C)[C@@H](Cc2ccccc2)C(=O)N[C@@H](Cc2ccc(O)cc2)C(=O)N(C)CC(=O)N[C@@H](Cc2c[nH]c3ccccc23)C(=O)N[C@@H](Cc2ccc(O)cc2)C(=O)N[C@@H](CC(C)C)C(=O)N[C@H](C(=O)NCC(N)=O)CSCC(=O)N[C@@H](Cc2ccccc2)C(=O)N(C)[C@@H](Cc2ccccc2)C(=O)N1C [Example 10084] ({CH2CO}-F[NMeF][NMeNle][dPip]DA[NMeF]Y[Sar]WYLCG-NH2; thioether N-13) | 6.00 to 7.00
